- Tested on: H1376
- ASSAY_CONTEXT: Table 5 lower part; H1376 bladder cancer
The following molecules are listed with their measured IC50/EC50 values.
Answer format: numeric, nM implied, no suffix.

- MOLECULE: "CC[C@@]1(O)C(=O)OCc2c1cc1n(c2=O)Cc2c-1nc1cc3c(cc1c2-c1cc(OC)cc(OC)c1)OCO3 [7Q 24]"
  TEST_RESULT: 246

Turning to the following molecule.
Given CCc1ccc(-c2c3c(nc4cc5c(cc24)OCO5)-c2cc4c(c(=O)n2C3)COC(=O)[C@]4(O)CC)cc1 [7Q 6] , state its recorded IC50/EC50.
386

---

The following compounds are listed with their measured IC50 values.
- System: A549
- Type: cell-based, human
Answer format: numeric, nM implied, no suffix.

Given CC[C@@]1(O)C(=O)OCc2c1cc1n(c2=O)Cc2c-1nc1cc3c(cc1c2-c1ccc(F)cc1)OCO3 [Compound 7b] , state its recorded IC50.
19.8

Then CCOc1ccc(-c2c3c(nc4cc5c(cc24)OCO5)-c2cc4c(c(=O)n2C3)COC(=O)[C@]4(O)CC)cc1F [Compound 7j] ?
352

Then CC[C@@]1(O)C(=O)OCc2c1cc1n(c2=O)Cc2c-1nc1cc3c(cc1c2-c1ccc(OC)c(F)c1)OCO3 [Compound 7g] ?
70.2

Then CC[C@@]1(O)C(=O)OCc2c1cc1n(c2=O)Cc2c-1nc1cc3c(cc1c2-c1cc(C)cc(F)c1)OCO3 [Compound 7f] ?
30.6

Then CC[C@@]1(O)C(=O)OCc2c1cc1n(c2=O)Cc2c-1nc1cc3c(cc1c2-c1ccc(F)c(C)c1)OCO3 [Compound 7e] ?
29.4

Then CC[C@@]1(O)C(=O)OCc2c1cc1n(c2=O)Cc2c-1nc1cc3c(cc1c2-c1cccc(F)c1)OCO3 [Compound 7a] ?
40

Then CC[C@@]1(O)C(=O)OCc2c1cc1n(c2=O)Cc2c-1nc1cc3c(cc1c2-c1ccc(F)c(F)c1)OCO3 [Compound 7n] ?
9

Then CC[C@@]1(O)C(=O)OCc2c1cc1n(c2=O)Cc2c-1nc1cc3c(cc1c2-c1cccc(C(F)(F)F)c1)OCO3 [Compound 7k] ?
82.9

Then CC[C@@]1(O)C(=O)OCc2c1cc1n(c2=O)Cc2c-1nc1cc3c(cc1c2-c1cc(F)cc(F)c1)OCO3 [Compound 7c] ?
49.5

---

- Tested on: A2008
- PROTOCOL_SUMMARY: MTT assay A2008
- Type: cell-based
- ASSAY_CONTEXT: Table 9; A2008
- Experimental: MTT assays. […] Viable cells (2500 cells per well) were plated in each well in 96-well plates. […] Absorbance in the relevant wells was measured at 570 nm using an Ultra Microplate Reader (Bio-Tek Instruments). […] IC50/EC50 values were calculated from a series of drug dose ranges for each analyzed compound, using GraphPad Prism 6 (GraphPad Software, Inc., La Jolla, CA). […]
ENDPOINT: log10 of IC50/EC50 (log10 of the value in µM)
Give log10 of IC50/EC50, with IC50/EC50 taken in µM.

Sample answers from the record:
- STRUCTURE_SMILES_STRING: "CC[C@@]1(O)C(=O)OCc2c1cc1n(c2=O)Cc2c-1nc1cc3c(cc1c2-c1ccoc1)OCO3"
  TEST_RESULT: -1.79
- STRUCTURE_SMILES_STRING: "CC[C@@]1(O)C(=O)OCc2c1cc1n(c2=O)Cc2c-1nc1cc3c(cc1c2-c1cc(C(F)(F)F)cc(C(F)(F)F)c1)OCO3"
  TEST_RESULT: -2.14
- STRUCTURE_SMILES_STRING: "CC[C@@]1(O)C(=O)OCc2c1cc1n(c2=O)Cc2c-1nc1cc3c(cc1c2-c1ccsc1)OCO3"
  TEST_RESULT: -1.50

# get_value(readout= log10 of IC50/EC50, system= A2008) for "CC[C@@]1(O)C(=O)OCc2c1cc1n(c2=O)Cc2c-1nc1cc3c(cc1c2-c1cccnc1)OCO3"
-2.34

Then "CC[C@@]1(O)C(=O)OCc2c1cc1n(c2=O)Cc2c-1nc1cc3c(cc1c2-c1ccc(CO)cc1)OCO3" ?
-2.46

Then "CC[C@@]1(O)C(=O)OCc2c1cc1n(c2=O)Cc2c-1nc1cc3c(cc1c2-c1cnn(C)c1)OCO3" ?
-1.76

Then "CC[C@@]1(O)C(=O)OCc2c1cc1n(c2=O)Cc2c-1nc1cc3c(cc1c2-c1cccs1)OCO3" ?
-1.95

Then "CC[C@@]1(O)C(=O)OCc2c1cc1n(c2=O)Cc2c-1nc1cc3c(cc1c2-c1ccco1)OCO3" ?
-3.72

Then "CC[C@@]1(O)C(=O)OCc2c1cc1n(c2=O)Cc2c-1nc1cc3c(cc1c2-c1ccncc1)OCO3" ?
-1.61

---

- Tested on: HCT116
- Assay type: cell-based, human
- ASSAY_CONTEXT: Table 13; MTT; HCT116 colorectal cancer
ENDPOINT: pIC50
Entry type: numeric. Quantity: pIC50, the -log10 of concentration in molar units.

- MOLECULE: "CC[C@@]1(O)C(=O)OCc2c1cc1n(c2=O)Cc2cc3cc4c(cc3nc2-1)OCO4"
  MEASURED_TARGET: "HCT116"
  pIC50: 7.18

Turning to the following molecule.
Given CCc1c2c(nc3ccc(O)cc13)-c1cc3c(c(=O)n1C2)COC(=O)[C@]3(O)CC [SN38, reference compound] , state its recorded pIC50.
6.44

---

- Test system: HepG2
- Type: cell-based, human
- ASSAY_CONTEXT: Table 13; MTT; HepG2 liver cancer
The following compounds are listed with their measured pIC50 values.
Entry type: numeric. Quantity: pIC50, the -log10 of concentration in molar units.

Given CCc1c2c(nc3ccc(O)cc13)-c1cc3c(c(=O)n1C2)COC(=O)[C@]3(O)CC [SN38, reference compound] , state its recorded pIC50.
6.57

Then CC[C@@]1(O)C(=O)OCc2c1cc1n(c2=O)Cc2cc3cc4c(cc3nc2-1)OCO4 [FL118, 10,11-methylenedioxy-camptothecin] ?
7.16

---

- Test system: UOK151
- ASSAY_CONTEXT: Table 10; UOK151
ENDPOINT: IC50/EC50

Sample answers from the record:
- COMPOUND: "CCc1c2c(nc3ccc(O)cc13)-c1cc3c(c(=O)n1C2)COC(=O)[C@]3(O)CC [SN38, reference compound]"
  ENDPOINT: "IC50/EC50"
  TEST_RESULT: ">500 nM"
- COMPOUND: "CC[C@@]1(O)C(=O)OCc2c1cc1n(c2=O)Cc2cc3c(CN(C)C)c(O)ccc3nc2-1 [Topotecan, reference compound]"
  ENDPOINT: "IC50/EC50"
  TEST_RESULT: ">200 nM"
- COMPOUND: "CC[C@@]1(O)C(=O)OCc2c1cc1n(c2=O)Cc2c-1nc1cc3c(cc1c2-c1cc(C(F)(F)F)cc(C(F)(F)F)c1)OCO3 [W-b10/Hx7]"
  ENDPOINT: "IC50/EC50"
  TEST_RESULT: ">500 nM"

Turning to the following compound.
Given CC[C@@]1(O)C(=O)OCc2c1cc1n(c2=O)Cc2c-1nc1cc3c(cc1c2-c1ccc(F)c(F)c1)OCO3 [HX6] , state its recorded IC50/EC50.
4.6 nM

---

- Tested on: H1376
- ASSAY_CONTEXT: Table 5 lower part; H1376 bladder cancer
ENDPOINT: IC50/EC50

- COMPOUND: "CC[C@@]1(O)C(=O)OCc2c1cc1n(c2=O)Cc2cc3c(CN(C)C)c(O)ccc3nc2-1 [Topotecan, reference compound]"
  MEASURED_TARGET: "H1376"
  IC50/EC50: ">500 nM"
- COMPOUND: "CC[C@@]1(O)C(=O)OCc2c1cc1n(c2=O)Cc2c-1nc1cc3c(cc1c2-c1ccc(OC)cc1)OCO3 [7Q 9]"
  MEASURED_TARGET: "H1376"
  IC50/EC50: ">500 nM"

# get_value(readout= IC50/EC50, system= H1376) for CCc1c2c(nc3ccc(O)cc13)-c1cc3c(c(=O)n1C2)COC(=O)[C@]3(O)CC [SN38, reference compound]
>500 nM

---

The following compounds are listed with their measured pIC50 values.
- System: A549
- Assay type: cell-based, human
Entry type: numeric. Quantity: pIC50, the -log10 of concentration in molar units.

- STRUCTURE_SMILES_STRING: "CC[C@@]1(O)C(=O)OCc2c1cc1n(c2=O)Cc2c-1nc1cc3c(cc1c2-c1cccc(OC(F)(F)F)c1)OCO3"
  ENDPOINT: "pIC50"
  TEST_RESULT: 7.58
- STRUCTURE_SMILES_STRING: "CC[C@@]1(O)C(=O)OCc2c1cc1n(c2=O)Cc2c-1nc1cc3c(cc1c2-c1ccc(OC(F)(F)F)cc1)OCO3"
  ENDPOINT: "pIC50"
  TEST_RESULT: 7.06
- STRUCTURE_SMILES_STRING: "CC[C@@]1(O)C(=O)OCc2c1cc1n(c2=O)Cc2c-1nc1cc3c(cc1c2-c1cc(F)cc(OC)c1)OCO3"
  ENDPOINT: "pIC50"
  TEST_RESULT: 7.81

Turning to the following compound.
# get_value(readout= pIC50, system= A549) for "CC[C@@]1(O)C(=O)OCc2c1cc1n(c2=O)Cc2c-1nc1cc3c(cc1c2-c1ccc(C)c(F)c1)OCO3"
7.32

// provenance: patent US20250092058A1
